target: LIMK1 (UniProt P53667); assay: pIC50, kinobeads binding competition; details: cell material: Lysate mix
Sequence (P53667 whole entry, looked up): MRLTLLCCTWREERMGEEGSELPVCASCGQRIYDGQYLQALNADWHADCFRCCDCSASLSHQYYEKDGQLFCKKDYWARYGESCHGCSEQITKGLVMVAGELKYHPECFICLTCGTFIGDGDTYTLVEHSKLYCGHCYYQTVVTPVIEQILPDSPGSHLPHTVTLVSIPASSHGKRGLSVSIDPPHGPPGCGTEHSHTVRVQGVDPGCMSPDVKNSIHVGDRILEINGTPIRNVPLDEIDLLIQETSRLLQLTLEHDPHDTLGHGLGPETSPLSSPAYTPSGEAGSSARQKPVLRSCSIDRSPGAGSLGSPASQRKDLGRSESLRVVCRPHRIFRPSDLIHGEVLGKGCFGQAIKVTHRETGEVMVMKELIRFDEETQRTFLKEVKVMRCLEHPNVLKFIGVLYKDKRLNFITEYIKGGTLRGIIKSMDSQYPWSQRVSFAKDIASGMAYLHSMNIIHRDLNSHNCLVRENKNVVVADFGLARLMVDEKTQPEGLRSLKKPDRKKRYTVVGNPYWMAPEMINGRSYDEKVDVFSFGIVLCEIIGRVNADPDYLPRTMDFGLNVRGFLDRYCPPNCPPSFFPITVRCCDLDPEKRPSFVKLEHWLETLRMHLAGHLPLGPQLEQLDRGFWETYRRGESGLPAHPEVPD
MEASURED QUANTITY: pIC50
The answer should be written as a number, with no unit following it.

Here are 3 molecules together with their reported answers.
C#CCNC(=O)c1cc(Nc2cc(C3CC3)[nH]n2)nc(N2CCN(Cc3ccc(S(=O)(=O)F)cc3)CC2)n1 ... 6.32
CCNC(=O)c1cc(Nc2cc(C3CC3)[nH]n2)nc(N2CCN(Cc3ccc(S(=O)(=O)F)cc3)CC2)n1 ... 6.06
CCNC(=O)c1cc(Nc2cc(C)[nH]n2)nc(N2CCN(Cc3ccc(S(=O)(=O)F)cc3)CC2)n1 ... 5.74

Would you kindly look at the next entry?
# query: pIC50 | item `C#CCNC(=O)c1cc(Nc2cc(C)[nH]n2)nc(N2CCN(Cc3ccc(S(=O)(=O)F)cc3)CC2)n1` | system: LIMK1 (UniProt P53667)
5.62

---

# key: entry, value: pIC50
molecular target: PDIK1L (UniProt Q8N165); assay: pIC50, kinobeads binding competition; details: cell material: Lysate mix
Sequence (Q8N165 whole entry): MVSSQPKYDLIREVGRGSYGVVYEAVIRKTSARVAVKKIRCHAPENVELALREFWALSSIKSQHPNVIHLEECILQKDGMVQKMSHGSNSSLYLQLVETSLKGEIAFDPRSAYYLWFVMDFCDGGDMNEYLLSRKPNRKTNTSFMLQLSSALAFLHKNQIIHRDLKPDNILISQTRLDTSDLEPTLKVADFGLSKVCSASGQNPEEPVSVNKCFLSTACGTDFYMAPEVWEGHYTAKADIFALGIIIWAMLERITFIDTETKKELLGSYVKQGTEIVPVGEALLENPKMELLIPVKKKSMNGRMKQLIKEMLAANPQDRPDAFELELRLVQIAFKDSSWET
The answer should be written as a number, with no unit following it.

Here are 3 compounds together with their reported answers.
CCNC(=O)c1cc(Nc2cc(C3CC3)[nH]n2)nc(N2CCN(Cc3ccc(S(=O)(=O)F)cc3)CC2)n1 ... 5.89
C#CCNC(=O)c1cc(Nc2cc(C3CC3)[nH]n2)nc(N2CCN(Cc3ccc(S(=O)(=O)F)cc3)CC2)n1 ... 5.64
CCNC(=O)c1cc(Nc2cc(C)[nH]n2)nc(N2CCN(Cc3ccc(S(=O)(=O)F)cc3)CC2)n1 ... 5.5

Would you kindly look at the next entry?
Which pIC50 reading was recorded for the compound `C#CCNC(=O)c1cc(Nc2cc(C)[nH]n2)nc(N2CCN(Cc3ccc(S(=O)(=O)F)cc3)CC2)n1` ?
5.14

---

molecular target: STK35 (UniProt Q8TDR2); test: pIC50, kinobeads binding competition; settings: cell material: Lysate mix
Sequence (Q8TDR2 whole entry): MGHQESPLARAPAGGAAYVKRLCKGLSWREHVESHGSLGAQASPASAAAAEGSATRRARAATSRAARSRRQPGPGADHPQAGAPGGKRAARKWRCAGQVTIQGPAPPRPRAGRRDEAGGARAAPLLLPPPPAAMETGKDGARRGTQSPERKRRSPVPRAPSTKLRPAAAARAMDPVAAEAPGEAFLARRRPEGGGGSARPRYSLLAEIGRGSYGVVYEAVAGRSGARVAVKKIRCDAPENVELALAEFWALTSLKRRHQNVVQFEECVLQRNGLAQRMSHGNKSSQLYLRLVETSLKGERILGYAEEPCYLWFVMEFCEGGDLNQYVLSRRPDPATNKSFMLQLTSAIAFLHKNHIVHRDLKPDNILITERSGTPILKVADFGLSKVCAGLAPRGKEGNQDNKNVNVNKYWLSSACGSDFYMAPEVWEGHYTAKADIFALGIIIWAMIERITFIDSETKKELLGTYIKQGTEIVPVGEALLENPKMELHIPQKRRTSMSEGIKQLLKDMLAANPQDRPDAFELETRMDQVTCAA
# key: entry, value: pIC50
The answer should be written as a number, with no unit following it.

C#CCNC(=O)c1cc(Nc2cc(C3CC3)[nH]n2)nc(N2CCN(Cc3ccc(S(=O)(=O)F)cc3)CC2)n1 ... 6.96
Cc1cc(Nc2cc(C(=O)NCCNC(=O)OC3CC/C=C/CCC3)nc(N3CCN(Cc4ccc(S(=O)(=O)F)cc4)CC3)n2)n[nH]1 (stereo unspecified) ... 4.91
C#CCNC(=O)c1cc(Nc2cc(C)[nH]n2)nc(N2CCN(Cc3ccc(S(=O)(=O)F)cc3)CC2)n1 ... 6.01

Which pIC50 reading was recorded for the compound O=C(NCCNC(=O)c1cc(Nc2cc(C3CC3)[nH]n2)nc(N2CCN(Cc3ccc(S(=O)(=O)F)cc3)CC2)n1)OC1CC/C=C/CCC1 (stereo unspecified) ?
5.2

Which pIC50 reading was recorded for the compound `CCNC(=O)c1cc(Nc2cc(C3CC3)[nH]n2)nc(N2CCN(Cc3ccc(S(=O)(=O)F)cc3)CC2)n1` ?
6.58

Which pIC50 reading was recorded for the compound `CCNC(=O)c1cc(Nc2cc(C)[nH]n2)nc(N2CCN(Cc3ccc(S(=O)(=O)F)cc3)CC2)n1` ?
6.51

---

biological target: UniProtKB P42685; experiment: pIC50, kinobeads binding competition; details: cell material: Lysate mix
Sequence (P42685 whole entry): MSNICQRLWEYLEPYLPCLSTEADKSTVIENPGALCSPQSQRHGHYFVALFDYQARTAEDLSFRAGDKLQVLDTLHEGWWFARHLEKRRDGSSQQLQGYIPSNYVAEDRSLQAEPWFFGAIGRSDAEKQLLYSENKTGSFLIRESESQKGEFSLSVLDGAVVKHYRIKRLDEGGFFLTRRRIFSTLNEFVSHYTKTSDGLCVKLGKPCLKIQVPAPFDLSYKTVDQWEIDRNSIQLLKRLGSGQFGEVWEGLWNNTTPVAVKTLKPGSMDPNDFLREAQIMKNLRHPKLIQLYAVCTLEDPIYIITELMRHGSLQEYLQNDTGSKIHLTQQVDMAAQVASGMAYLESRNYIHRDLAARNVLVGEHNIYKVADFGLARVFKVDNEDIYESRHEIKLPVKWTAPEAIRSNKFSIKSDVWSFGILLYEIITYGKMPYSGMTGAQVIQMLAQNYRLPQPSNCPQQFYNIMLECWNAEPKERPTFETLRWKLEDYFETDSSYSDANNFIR
MEASURED QUANTITY: pIC50
The answer should be written as a number, with no unit following it.

C#CCNC(=O)c1cc(Nc2cc(C3CC3)[nH]n2)nc(N2CCN(Cc3ccc(S(=O)(=O)F)cc3)CC2)n1 ... 6.27
C#CCNC(=O)c1cc(Nc2cc(C)[nH]n2)nc(N2CCN(Cc3ccc(S(=O)(=O)F)cc3)CC2)n1 ... 5.78
CCNC(=O)c1cc(Nc2cc(C3CC3)[nH]n2)nc(N2CCN(Cc3ccc(S(=O)(=O)F)cc3)CC2)n1 ... 5.98

Which pIC50 reading was recorded for the compound `CCNC(=O)c1cc(Nc2cc(C)[nH]n2)nc(N2CCN(Cc3ccc(S(=O)(=O)F)cc3)CC2)n1` ?
6.23
